target.or.system: horse spleen apoferritin (Equus caballus)
Construct: gene FTL; native spleen apoferritin from Sigma-Aldrich, 24-mer, heavy and light chains in approximate mole ratio 1:6; with Ferritin heavy chain
Sequence (P02791 2-175): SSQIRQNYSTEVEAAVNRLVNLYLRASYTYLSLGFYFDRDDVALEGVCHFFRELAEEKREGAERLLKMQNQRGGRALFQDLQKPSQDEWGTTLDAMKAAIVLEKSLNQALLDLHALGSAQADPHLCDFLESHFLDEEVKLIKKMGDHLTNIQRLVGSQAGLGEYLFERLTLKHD
test.summary: isothermal titration calorimetry
Assay type: binding
conditions.used: read-out: Thiopental
measured.metric: Kd (µM)
Numbers only here, please. The scale is µM.

Query string: Return reported Kd; argument: CCCC(C)C1(CC)C(=O)NC(=S)NC1=O (racemic)
Result string: 11

These measurements were taken from paper PMC3281113.
